These data points were gathered from patent US4925846A.

- tgt: benzodiazepine receptor
- test-name: Benzodiazepine receptor binding (FRB), [3H]-flunitrazepam displacement
- measurement-conditions: 0.6 nM [3H] flunitrazepam, rat forebrain membrane preparations; read-out: FRB (IC50, inhibition of specific binding of [3H]-flunitrazepam)
Quick rule for you: IC50 under 2000 nM gets Yes, anything else gets No.

CCc1c(OC)nc2nc(-c3nc(C)c(C)s3)cn2c1C : No
CCc1c(OC)nc2nc(-c3nccs3)cn2c1C : Yes
CCc1csc(-c2cn3c(C)c(CC)c(OC)nc3n2)n1 : Yes
CCOC(=O)c1csc(-c2cn3c(C)c(CC)c(OC)nc3n2)n1 : No

Next item in the queue.
Q. Strictly below 2000 nM in IC50? CCCc1c(OC)nc2nc(-c3nc(C)cs3)cn2c1C
A. Yes

----------
Quick reference for pIC50 among some compounds
- tgt: benzodiazepine receptor
- test-name: Benzodiazepine receptor binding (FRB), [3H]-flunitrazepam displacement
- measurement-conditions: 0.6 nM [3H] flunitrazepam, rat forebrain membrane preparations; read-out: FRB (IC50, inhibition of specific binding of [3H]-flunitrazepam)
Note on units: pIC50 is unitless, being -log10 of a concentration expressed in mol/L.

Q. Returns the measured pIC50 for the input compound. Input: CCc1c(SC)nc2nc(-c3nc(C)cs3)cn2c1C
A. 7.10

Q. Now consider COc1nc2nc(-c3nc(C)cs3)cn2c2c1CCCC2 and answer again.
A. 7.66

Q. Let us now turn to CCc1c(OC)nc2nc(-c3nc(C(F)(F)F)cs3)cn2c1C
A. 5.70

Q. Similarly, C=CCc1c(OC)nc2nc(-c3nc(C)cs3)cn2c1C ?
A. 7.00

Q. Same question, CCc1c(OC)nc2nc(-c3nc(C)cs3)cn2c1C this time
A. 6.95
